# Tested on: 967376-340-R-J2-PDC multicell spheroid viability
# experiment_summary: Anticancer human tumor 967376-340-R-J2-PDC patient-derived colon adenocarcinoma cell line growth inhibition [PI3K]
# experimental_setup: second compound 0.0316 µM; first compound 0.0316 µM; hits give low values
# Excerpt: Combinatorial screen of targeted agents with the PI3K inhibitors inavolisib, alpelisib, duvelisib, and copanlisib in multi-cell type tumor spheroids A high-throughput screen of multi-cell type tumor spheroids was designed to identify active combinations of targeted small molecules and PI3K pathway inhibitors. […] Compounds. […] If the clinical Cmax for an agent had not been determined, the highest concentration tested was 10 microM. […]
viability, T/C: recorded values
Hi! Could you send only the number? It should be in %, unit omitted.

Example results:
{"compound": "Cn1ncnc1[C@H]1c2n[nH]c(=O)c3cc(F)cc(c23)N[C@@H]1c1ccc(F)cc1 + COc1c(OCCCN2CCOCC2)ccc2c3n(c(=NC(=O)c4cnc(N)nc4)nc12)CCN3", "viability, T/C [%]": 66.8}
{"compound": "CC1(C)CCC(CN2CCN(c3ccc(C(=O)NS(=O)(=O)c4ccc(NCC5CCOCC5)c([N+](=O)[O-])c4)c(Oc4cnc5[nH]ccc5c4)c3)CC2)=C(c2ccc(Cl)cc2)C1 + Cc1nc(NC(=O)N2CCCC2C(N)=O)sc1-c1ccnc(C(C)(C)C(F)(F)F)c1", "viability, T/C [%]": 103}
{"compound": "CCN1CCN(Cc2ccc(Nc3ncc(F)c(-c4cc(F)c5nc(C)n(C(C)C)c5c4)n3)nc2)CC1 + Cc1nc(NC(=O)N2CCCC2C(N)=O)sc1-c1ccnc(C(C)(C)C(F)(F)F)c1", "viability, T/C [%]": 90.9}
{"compound": "CC1(C)CCC(Nc2ncc(C(F)(F)F)c(-c3c[nH]c4c(P(C)(C)=O)c(C#N)ccc34)n2)CN1 (stereo not given) + CC(Nc1ccc2c(c1)OCCn1cc(N3C(=O)OCC3C(F)F)nc1-2)C(N)=O", "viability, T/C [%]": 58.4}

Continue with the next compound.
Input line: GET /values?readout=viability, T/C&system=967376-340-R-J2-PDC multicell spheroid viability&item= CC(C)NCC(C(=O)N1CCN(c2ncnc3c2C(C)CC3O)CC1)c1ccc(Cl)cc1 (stereo not given) + CC(Nc1ccc2c(c1)OCCn1cc(N3C(=O)OCC3C(F)F)nc1-2)C(N)=O
Output line: 68.5

----------
# System: 967376-340-R-J2-PDC multicell spheroid viability
# experiment_summary: Anticancer human tumor 967376-340-R-J2-PDC cell line growth inhibition [PI3K];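 note: luminescence used as surrogate of cell viability; spheroids exposed to agents for 7 days before read-out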
# experimental_setup: second compound 0.316 µM; first compound 3.16 µM; hits give low values
viability, T/C: recorded values
Hi! Could you send only the number? It should be in %, unit omitted.

Example results:
{"molecule": "CCCS(=O)(=O)Nc1ccc(F)c(C(=O)c2c[nH]c3ncc(-c4ccc(Cl)cc4)cc23)c1F + CC(Nc1ccc2c(c1)OCCn1cc(N3C(=O)OCC3C(F)F)nc1-2)C(N)=O", "observed_property": "viability, T/C", "output_unit": "%", "numeric_value": 75.2}
{"molecule": "Cn1nccc1Nc1nccc(-c2ccn(C(CO)c3ccc(Cl)c(F)c3)c(=O)c2)n1 (stereo not drawn) + Cc1nc(NC(=O)N2CCCC2C(N)=O)sc1-c1ccnc(C(C)(C)C(F)(F)F)c1", "observed_property": "viability, T/C", "output_unit": "%", "numeric_value": 84.2}

Continue with the next molecule.
Input line: Returns the measured viability, T/C for the input molecule. Input: CNC(=O)c1ccc(N2C(=S)N(c3ccc(C#N)c(C(F)(F)F)c3)C(=O)C2(C)C)cc1F + COc1c(OCCCN2CCOCC2)ccc2c3n(c(=NC(=O)c4cnc(N)nc4)nc12)CCN3
Output line: 37.5

----------
# System: 967376-340-R-J2-PDC multicell spheroid viability
# experiment_summary: Anticancer human tumor 967376-340-R-J2-PDC cell line growth inhibition [PI3K];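 note: luminescence used as surrogate of cell viability; spheroids exposed to agents for 7 days before read-out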
# experimental_setup: second compound 0.0316 µM; first compound 3.16 µM; hits give low values
# Excerpt: Combinatorial screen of targeted agents with the PI3K inhibitors inavolisib, alpelisib, duvelisib, and copanlisib in multi-cell type tumor spheroids A high-throughput screen of multi-cell type tumor spheroids was designed to identify active combinations of targeted small molecules and PI3K pathway inhibitors. […] Compounds. […] If the clinical Cmax for an agent had not been determined, the highest concentration tested was 10 microM. […]
observed_property: viability, T/C (%)
Hi! Could you send only the number? It should be in %, unit omitted.

Example results:
{"compound": "C#Cc1c(F)ccc2cc(O)cc(-c3ncc4c(N5CC6CCC(C5)N6)nc(OCC56CCCN5CC(F)C6)nc4c3F)c12 (stereo not given) + COc1c(OCCCN2CCOCC2)ccc2c3n(c(=NC(=O)c4cnc(N)nc4)nc12)CCN3", "study_target": "967376-340-R-J2-PDC multicell spheroid viability", "observed_property": "viability, T/C", "numeric_value": 81.8}
{"compound": "C=CC(=O)N1CCN(c2nc(=O)n(-c3c(C)ccnc3C(C)C)c3nc(-c4c(O)cccc4F)c(F)cc23)C(C)C1 (stereo not given) + CC(Nc1ncnc2nc[nH]c12)c1cc2cccc(Cl)c2c(=O)n1-c1ccccc1", "study_target": "967376-340-R-J2-PDC multicell spheroid viability", "observed_property": "viability, T/C", "numeric_value": 96.6}
{"compound": "CC(C)NCC(C(=O)N1CCN(c2ncnc3c2C(C)CC3O)CC1)c1ccc(Cl)cc1 (stereo not given) + Cc1nc(NC(=O)N2CCCC2C(N)=O)sc1-c1ccnc(C(C)(C)C(F)(F)F)c1", "study_target": "967376-340-R-J2-PDC multicell spheroid viability", "observed_property": "viability, T/C", "numeric_value": 77.8}
{"compound": "C[C@@H](NC(=O)c1ncnc(N)c1Cl)c1ncc(C(=O)Nc2cc(C(F)(F)F)c(Cl)cn2)s1 + COc1c(OCCCN2CCOCC2)ccc2c3n(c(=NC(=O)c4cnc(N)nc4)nc12)CCN3", "study_target": "967376-340-R-J2-PDC multicell spheroid viability", "observed_property": "viability, T/C", "numeric_value": 93.3}

Continue with the next compound.
Input line: Returns the measured viability, T/C for the input compound. Input: CCCS(=O)(=O)Nc1ccc(F)c(C(=O)c2c[nH]c3ncc(-c4ccc(Cl)cc4)cc23)c1F + COc1c(OCCCN2CCOCC2)ccc2c3n(c(=NC(=O)c4cnc(N)nc4)nc12)CCN3
Output line: 69.7

----------
viability, T/C: recorded values
# Tested on: 967376-340-R-J2-PDC multicell spheroid viability
# experiment_summary: Anticancer human tumor 967376-340-R-J2-PDC cell line growth inhibition [PI3K];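 note: luminescence used as surrogate of cell viability; spheroids exposed to agents for 7 days before read-out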
# experimental_setup: second compound 0.316 µM; first compound 0.0316 µM; hits give low values
Hi! Could you send only the number? It should be in %, unit omitted.

{"compound": "C#Cc1c(F)ccc2cc(O)cc(-c3ncc4c(N5CC6CCC(C5)N6)nc(OCC56CCCN5CC(F)C6)nc4c3F)c12 (stereo not given) + CC(Nc1ccc2c(c1)OCCn1cc(N3C(=O)OCC3C(F)F)nc1-2)C(N)=O", "study_target": "967376-340-R-J2-PDC multicell spheroid viability", "output_unit": "%", "viability, T/C": 55.1}
{"compound": "C[C@@H](NC(=O)c1ncnc(N)c1Cl)c1ncc(C(=O)Nc2cc(C(F)(F)F)c(Cl)cn2)s1 + COc1c(OCCCN2CCOCC2)ccc2c3n(c(=NC(=O)c4cnc(N)nc4)nc12)CCN3", "study_target": "967376-340-R-J2-PDC multicell spheroid viability", "output_unit": "%", "viability, T/C": 49}
{"compound": "C[C@@H](NC(=O)c1ncnc(N)c1Cl)c1ncc(C(=O)Nc2cc(C(F)(F)F)c(Cl)cn2)s1 + CC(Nc1ccc2c(c1)OCCn1cc(N3C(=O)OCC3C(F)F)nc1-2)C(N)=O", "study_target": "967376-340-R-J2-PDC multicell spheroid viability", "output_unit": "%", "viability, T/C": 65.5}

Input line: Returns the measured viability, T/C for the input compound. Input: CCN1CCN(Cc2ccc(Nc3ncc(F)c(-c4cc(F)c5nc(C)n(C(C)C)c5c4)n3)nc2)CC1 + CC(Nc1ccc2c(c1)OCCn1cc(N3C(=O)OCC3C(F)F)nc1-2)C(N)=O
Output line: 57.4

Input line: Returns the measured viability, T/C for the input compound. Input: Cn1nccc1Nc1nccc(-c2ccn(C(CO)c3ccc(Cl)c(F)c3)c(=O)c2)n1 (stereo not given) + CC(Nc1ncnc2nc[nH]c12)c1cc2cccc(Cl)c2c(=O)n1-c1ccccc1
Output line: 107

----------
viability, T/C: recorded values
# System: 967376-340-R-J2-PDC multicell spheroid viability
# experiment_summary: Anticancer human tumor 967376-340-R-J2-PDC cell line growth inhibition [PI3K];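 note: luminescence used as surrogate of cell viability; spheroids exposed to agents for 7 days before read-out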
# experimental_setup: second compound 0.01 µM; first compound 0.1 µM; hits give low values
Hi! Could you send only the number? It should be in %, unit omitted.

Example results:
{"compound": "C[C@@H](NC(=O)c1ncnc(N)c1Cl)c1ncc(C(=O)Nc2cc(C(F)(F)F)c(Cl)cn2)s1 + CC(Nc1ccc2c(c1)OCCn1cc(N3C(=O)OCC3C(F)F)nc1-2)C(N)=O", "study_target": "967376-340-R-J2-PDC multicell spheroid viability", "output_unit": "%", "viability, T/C": 98.7}
{"compound": "CC1(C)CCC(Nc2ncc(C(F)(F)F)c(-c3c[nH]c4c(P(C)(C)=O)c(C#N)ccc34)n2)CN1 (stereo unspecified) + COc1c(OCCCN2CCOCC2)ccc2c3n(c(=NC(=O)c4cnc(N)nc4)nc12)CCN3", "study_target": "967376-340-R-J2-PDC multicell spheroid viability", "output_unit": "%", "viability, T/C": 77.4}
{"compound": "CCN1CCN(Cc2ccc(Nc3ncc(F)c(-c4cc(F)c5nc(C)n(C(C)C)c5c4)n3)nc2)CC1 + COc1c(OCCCN2CCOCC2)ccc2c3n(c(=NC(=O)c4cnc(N)nc4)nc12)CCN3", "study_target": "967376-340-R-J2-PDC multicell spheroid viability", "output_unit": "%", "viability, T/C": 71.1}
{"compound": "CC1(C)CCC(CN2CCN(c3ccc(C(=O)NS(=O)(=O)c4ccc(NCC5CCOCC5)c([N+](=O)[O-])c4)c(Oc4cnc5[nH]ccc5c4)c3)CC2)=C(c2ccc(Cl)cc2)C1 + CC(Nc1ccc2c(c1)OCCn1cc(N3C(=O)OCC3C(F)F)nc1-2)C(N)=O", "study_target": "967376-340-R-J2-PDC multicell spheroid viability", "output_unit": "%", "viability, T/C": 75.7}
{"compound": "CC(C)n1nc(-c2ccc3oc(N)nc3c2)c2c(N)ncnc21 + CC(Nc1ccc2c(c1)OCCn1cc(N3C(=O)OCC3C(F)F)nc1-2)C(N)=O", "study_target": "967376-340-R-J2-PDC multicell spheroid viability", "output_unit": "%", "viability, T/C": 43.3}

Input line: Returns the measured viability, T/C for the input compound. Input: CC(Cn1ccc(-c2ccc(C#N)c(Cl)c2)n1)NC(=O)c1cc(C(C)O)[nH]n1 (stereo unspecified) + CC(Nc1ccc2c(c1)OCCn1cc(N3C(=O)OCC3C(F)F)nc1-2)C(N)=O
Output line: 78.3

Input line: Returns the measured viability, T/C for the input compound. Input: CC(C)NCC(C(=O)N1CCN(c2ncnc3c2C(C)CC3O)CC1)c1ccc(Cl)cc1 (stereo unspecified) + CC(Nc1ccc2c(c1)OCCn1cc(N3C(=O)OCC3C(F)F)nc1-2)C(N)=O
Output line: 86.5
